Assay: Clearance in rat at 3 mg/kg, iv
Assay type: ADME, organism-based
Design: dose 3 mg/kg, route intravenous
Conditions: in vivo
measured.endpoint: clearance
# answer = value followed by unit

Illustrative cases are given below, each with its answer.
input.smiles: COc1cnn(C)c(=O)c1-c1ccc(C[C@H](NC(=O)N(C)CC(C)C)C(=O)O)cc1
clearance: 7.8 mL/min/kg
//
input.smiles: COc1cnn(CCO)c(=O)c1-c1ccc(C[C@H](NC(=O)OC(C)(C)C)C(=O)O)cc1
clearance: 6 mL/min/kg

Please turn your attention to the following entry.
(Q) Can you share its clearance? I mean this molecule: COc1cnn(C)c(=O)c1-c1ccc(C[C@H](NC(=O)c2c(Cl)cccc2Cl)C(=O)O)cc1
(A) 22 mL/min/kg

====

Kindly state pIC50 for each of the entries shown.
Target: Integrin alpha-4/beta-1 (Homo sapiens, UniProt P05556+P13612)
Sequence (P05556 whole entry): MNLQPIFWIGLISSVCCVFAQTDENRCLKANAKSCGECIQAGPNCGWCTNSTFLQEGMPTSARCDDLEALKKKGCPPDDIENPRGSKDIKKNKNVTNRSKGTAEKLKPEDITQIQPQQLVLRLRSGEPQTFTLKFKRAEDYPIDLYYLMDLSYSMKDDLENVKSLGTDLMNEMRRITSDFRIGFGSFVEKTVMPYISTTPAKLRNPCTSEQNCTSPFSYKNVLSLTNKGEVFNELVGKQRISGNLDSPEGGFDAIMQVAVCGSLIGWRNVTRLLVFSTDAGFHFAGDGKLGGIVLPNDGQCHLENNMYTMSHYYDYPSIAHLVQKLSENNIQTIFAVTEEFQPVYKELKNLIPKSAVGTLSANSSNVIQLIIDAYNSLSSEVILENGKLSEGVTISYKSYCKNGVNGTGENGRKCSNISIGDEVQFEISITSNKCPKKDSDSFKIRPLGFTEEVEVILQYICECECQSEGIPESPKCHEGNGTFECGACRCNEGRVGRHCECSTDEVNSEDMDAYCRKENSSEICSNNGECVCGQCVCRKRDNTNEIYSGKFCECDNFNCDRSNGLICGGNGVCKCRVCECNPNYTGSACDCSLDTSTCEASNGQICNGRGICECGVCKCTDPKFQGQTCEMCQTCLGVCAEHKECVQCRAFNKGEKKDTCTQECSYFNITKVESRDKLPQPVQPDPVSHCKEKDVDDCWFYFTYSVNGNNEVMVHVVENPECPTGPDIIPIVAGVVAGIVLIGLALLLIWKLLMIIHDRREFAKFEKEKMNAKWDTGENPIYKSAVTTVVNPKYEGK
Sequence (P13612 whole entry): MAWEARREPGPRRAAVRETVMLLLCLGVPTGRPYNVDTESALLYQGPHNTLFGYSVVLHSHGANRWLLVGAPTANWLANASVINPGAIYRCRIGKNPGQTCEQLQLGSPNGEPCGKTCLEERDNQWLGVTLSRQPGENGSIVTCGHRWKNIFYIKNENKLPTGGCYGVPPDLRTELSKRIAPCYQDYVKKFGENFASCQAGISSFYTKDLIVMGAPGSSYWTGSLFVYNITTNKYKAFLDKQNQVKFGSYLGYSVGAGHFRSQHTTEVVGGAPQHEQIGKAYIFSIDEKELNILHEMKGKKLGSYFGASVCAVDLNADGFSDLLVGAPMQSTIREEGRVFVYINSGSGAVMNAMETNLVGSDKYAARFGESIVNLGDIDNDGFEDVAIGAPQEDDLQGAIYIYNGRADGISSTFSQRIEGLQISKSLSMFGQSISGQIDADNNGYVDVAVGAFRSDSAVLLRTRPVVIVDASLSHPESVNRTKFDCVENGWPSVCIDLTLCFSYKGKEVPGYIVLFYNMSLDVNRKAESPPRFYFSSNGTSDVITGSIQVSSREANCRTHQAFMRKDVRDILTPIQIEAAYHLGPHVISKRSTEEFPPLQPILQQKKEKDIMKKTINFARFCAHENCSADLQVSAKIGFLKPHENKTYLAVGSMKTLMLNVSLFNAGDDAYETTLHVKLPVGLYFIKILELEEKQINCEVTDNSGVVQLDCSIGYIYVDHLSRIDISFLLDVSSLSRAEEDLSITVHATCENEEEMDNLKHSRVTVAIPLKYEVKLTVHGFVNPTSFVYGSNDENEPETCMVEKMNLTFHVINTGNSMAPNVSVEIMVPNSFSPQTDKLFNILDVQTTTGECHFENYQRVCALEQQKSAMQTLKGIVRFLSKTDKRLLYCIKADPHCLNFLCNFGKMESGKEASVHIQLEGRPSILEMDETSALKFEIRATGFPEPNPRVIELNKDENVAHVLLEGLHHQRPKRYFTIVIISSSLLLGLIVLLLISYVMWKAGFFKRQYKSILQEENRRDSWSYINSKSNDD
Test: Inhibition of binding of alpha4beta1 integrin receptor expressed in human Ramos cells to immobilized VCAM1
Answers are plain numbers, as −log10 of the molar value.

Would you be so kind as to report pIC50 for each listed record?
1. Cn1ncc(OC2CCCCC2)c(-c2ccc(C[C@H](NC(=O)c3c(Cl)cccc3Cl)C(=O)O)cc2)c1=O
2. COc1cnn(CCO)c(=O)c1-c1ccc(C[C@H](NC(=O)c2c(Cl)cccc2Cl)C(=O)O)cc1
3. Cn1ncc(OCCN2CCOCC2)c(-c2ccc(C[C@H](NC(=O)c3c(Cl)cccc3Cl)C(=O)O)cc2)c1=O
4. COc1cnnc(O)c1-c1ccc(C[C@H](NC(=O)c2c(Cl)cccc2Cl)C(=O)O)cc1
5. Cn1ncc(OC(F)F)c(-c2ccc(C[C@H](NC(=O)c3c(Cl)cccc3Cl)C(=O)O)cc2)c1=O

(A)
[6.82, 6.89, 7.18, 6.00, 6.55]

====

Target: Integrin alpha-4/beta-1 (Homo sapiens, UniProt P05556+P13612)
Test: Inhibition of binding of alpha4beta1 integrin receptor expressed in human Ramos cells to immobilized VCAM1
Provide the reported pIC50 of each item.
Answers are plain numbers, as −log10 of the molar value.

Worked examples, 2 compounds total:
input.smiles: Cn1ncc(N2CCCC2)c(-c2ccc(C[C@H](NC(=O)c3c(Cl)cccc3Cl)C(=O)O)cc2)c1=O
pIC50: 6.96
--
input.smiles: COc1cnn(C)c(=O)c1-c1ccc(C[C@H](NC(=O)N(C)CC(C)C)C(=O)O)cc1
pIC50: 5.74

(Q) Bench note: what pIC50 did CCOc1cnn(C)c(=O)c1-c1ccc(C[C@H](NC(=O)c2c(Cl)cccc2Cl)C(=O)O)cc1 show?
(A) 6.77

====

Experiment: Half life in rat at 3 mg/kg, iv
Assay type: ADME, organism-based
Design: dose 3 mg/kg, route intravenous
Conditions: in vivo
measured.endpoint: half-life
Include the unit after the number when you answer.

Past entries and their recorded results:
input.smiles: COC(=O)[C@H](Cc1ccc(-c2c(OC)cnn(C)c2=O)cc1)NC(=O)c1c(Cl)cccc1Cl
half-life: 42 min

input.smiles: COc1cnn(CCO)c(=O)c1-c1ccc(C[C@H](NC(=O)OC(C)(C)C)C(=O)OCCO)cc1
half-life: 66 min

input.smiles: COc1cnn(C)c(=O)c1-c1ccc(C[C@H](NC(=O)c2c(Cl)cccc2Cl)C(=O)OCCO)cc1
half-life: 60 min

input.smiles: COc1cnn(C)c(=O)c1-c1ccc(C[C@H](NC(=O)N(C)CC(C)C)C(=O)OCCO)cc1
half-life: 24 min

input.smiles: COc1cnn(C)c(=O)c1-c1ccc(C[C@H](NC(=O)c2c(Cl)cccc2Cl)C(=O)O)cc1
half-life: 12 min

input.smiles: COc1cnn(CCO)c(=O)c1-c1ccc(C[C@H](NC(=O)OC(C)(C)C)C(=O)O)cc1
half-life: 12 min

(Q) Can you share its half-life? I mean this compound: COc1cnn(C)c(=O)c1-c1ccc(C[C@H](NC(=O)N(C)CC(C)C)C(=O)O)cc1
(A) 54 min

These entries and their values trace back to ChEMBL document CHEMBL1148523.
